tested on: ATP; experiment: switch fluorescence ratio, 500 uM ATP over buffer (Cy3 cluster intensity, sum of 5 cycles each) (fold (ratio)); higher = stronger signal-on switching upon ATP binding; sequences stand for … in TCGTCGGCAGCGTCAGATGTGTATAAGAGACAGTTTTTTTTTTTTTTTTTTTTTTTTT…TC; settings: aptamer strand: ATP DNA aptamer (quencher-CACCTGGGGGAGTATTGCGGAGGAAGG + anchor), 100 nM annealed; ATP concentration: 500 uM;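 also: ATP exposure 15 min at 22 °C before imaging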
Parameter: switch fluorescence ratio

INSERT INTO assay_data (biopolymer_sequence, assayed_target, observed) VALUES
  ('GGGTGTCGGT', 'ATP', 0.984),
  ('TTGAGCGGGG', 'ATP', 0.988),
  ('GAGTACAAAA', 'ATP', 1.02),
  ('AAGGGAAGGG', 'ATP', 0.998),
  ('TCGAAATTCG', 'ATP', 1.02),
  ('TCTAAATGTT', 'ATP', 0.985),
  ('CTCTGTACAG', 'ATP', 1.01),
  ('AGATGAAGTG', 'ATP', 0.99),
  ('TTTCATGATC', 'ATP', 1),
  ('TTTTGGCGCT', 'ATP', 1.01),
  ('TAGAGGTCTT', 'ATP', 0.98),
  ('TGAAGGGGGC', 'ATP', 0.994),
  ('TATTAATAGA', 'ATP', 0.999),
  ('CTGATGTCTA', 'ATP', 0.977),
  ('ATCGGTTTTG', 'ATP', 1.01),
  ('TTAAAAGCGT', 'ATP', 1.02),
  ('ACTGGTAAGG', 'ATP', 1.01),
  ('CTATTTTGGT', 'ATP', 0.978),
  ('CATTTTGTTG', 'ATP', 1.01),
  ('TTACATAATT', 'ATP', 1.02);

Origin of measurements: the supplement of paper PMC10126150
